# experiment.summary: Volume of distribution in BALB/c mouse at 1 mg/kg, iv measured during 0.083 to 24 hrs post dose by LC-MS/MS analysis
# Format: ADME, organism-based
# study.conditions: in vivo, time 0.083-24 hrs

- smiles.representation: "CC(C)(CO)NC(=O)c1cc(C(C)(C)C)n(-c2ccc(C(F)(F)F)cn2)n1"
  unit.string: "L/kg"
  Vd: 4.5

---

# study.target: Cannabinoid receptor 1 (Homo sapiens, UniProt P21554)
# Sequence (P21554 whole entry): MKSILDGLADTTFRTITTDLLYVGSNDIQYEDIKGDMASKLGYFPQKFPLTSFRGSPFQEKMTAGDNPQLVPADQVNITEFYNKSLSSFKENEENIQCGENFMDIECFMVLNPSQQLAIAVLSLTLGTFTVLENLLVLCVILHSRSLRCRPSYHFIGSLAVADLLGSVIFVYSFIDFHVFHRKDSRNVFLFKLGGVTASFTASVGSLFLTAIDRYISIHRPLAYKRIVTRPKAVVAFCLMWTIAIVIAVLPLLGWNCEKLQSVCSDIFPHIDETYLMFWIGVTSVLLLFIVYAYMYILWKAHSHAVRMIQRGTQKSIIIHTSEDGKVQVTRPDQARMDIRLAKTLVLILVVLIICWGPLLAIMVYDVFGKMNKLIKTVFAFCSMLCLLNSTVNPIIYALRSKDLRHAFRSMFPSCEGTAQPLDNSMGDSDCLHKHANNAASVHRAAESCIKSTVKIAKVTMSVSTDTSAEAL
# experiment.summary: Agonist activity at human CB1 receptor expressing CHO cells co-expressing Galpha16 by calcium mobilization assay
# Assay type: functional, cell-based
pEC50: −log10 of the molar value.
The following compounds are listed with their measured pEC50 values.

- smiles.representation: "CCCn1nc(C(=O)NC(C)(C)CO)cc1C(C)(C)C"
  pEC50: 4.00
- smiles.representation: "CC(C)(CO)NC(=O)c1cc(C(C)(C)C)n(-c2ncc(C(F)(F)F)cc2Cl)n1"
  pEC50: 4.00
- smiles.representation: "CCCCCn1nc(C(=O)NC(C)(C)CO)c(N)c1C(C)(C)C"
  pEC50: 6.71
- smiles.representation: "CCCCCn1nc(C(C)(C)C)cc1C(=O)NC12CC3CC(CC(C3)C1)C2"
  pEC50: 4.00
- smiles.representation: "CCCCCn1nc(C(=O)NC(C)(C)CO)cc1C1CC1"
  pEC50: 4.00
- smiles.representation: "CC(C)(CO)NC(=O)c1cc(C(C)(C)C)n(-c2ccc(F)cn2)n1"
  pEC50: 4.00
- smiles.representation: "CCCCCn1nc(C(C)(C)C)cc1C(=O)Nc1ccc(Cl)cc1"
  pEC50: 4.00
- smiles.representation: "CCCCCCn1nc(C(=O)NC(C)(C)CO)cc1C(C)(C)C"
  pEC50: 7.33
- smiles.representation: "CC(C)(CO)NC(=O)c1cc(C(C)(C)C)n(-c2ccc(OC(F)(F)F)cc2)n1"
  pEC50: 4.00
- smiles.representation: "CC(C)(CO)NC(=O)c1cc(C(C)(C)C)n(-c2ccc(F)cc2F)n1"
  pEC50: 4.00
- smiles.representation: "CCCCCn1nc(C(=O)NC(C)(C)CO)c(Cl)c1C(C)(C)C"
  pEC50: 7.47

---

The following molecules are listed with their measured remaining at 1 h, 1 µM values.
# experiment.summary: in vitro
# study.conditions: human, liver microsomes
# Description: Stability in human liver microsomes assessed as parent compound remaining at 1 uM incubated for 60 mins in presence of NADPH by LC-MS/MS analysis

- molecule: "CCCCCn1nc(C(=O)NC(C)(C)CO)c(N)c1C(C)(C)C"
  unit.string: "%"
  remaining at 1 h, 1 µM: 4.6
- molecule: "CCCCCn1nc(C(=O)NC(C)(C)CO)cc1C(C)(C)C"
  unit.string: "%"
  remaining at 1 h, 1 µM: 14.9
- molecule: "C[C@]12CC[C@H]3[C@@H](CCC4=CC(=O)CC[C@@]43C)[C@@H]1CC[C@@H]2O [TESTOSTERONE]"
  unit.string: "%"
  remaining at 1 h, 1 µM: 10.7
- molecule: "CCCCCn1nc(C(=O)N[C@@H](C(=O)OC)C(C)C)cc1C(C)(C)C"
  unit.string: "%"
  remaining at 1 h, 1 µM: 2.9
- molecule: "CC(C)(CO)NC(=O)c1cc(C(C)(C)C)n(-c2ccc(C(F)(F)F)cn2)n1"
  unit.string: "%"
  remaining at 1 h, 1 µM: 64
- molecule: "CCCCCn1nc(C(=O)NC(C)(C)CO)cc1-c1ccc(F)cc1F"
  unit.string: "%"
  remaining at 1 h, 1 µM: 14.1
